system: HL-60(TB) leukemia; assay: NCI tumour cell line growth inhibition, 48 h
Result Type: TGI

{"columns": ["Molecule", "Result Type", "Test Result"],
 "data": [
  ["CCCCCc1cc2c(cc1O)CC[C@@H]1[C@@H]2CC[C@]2(C)[C@@H](O)CC[C@@H]12", "TGI", "41.4 µM"],
  ["COc1ccc(/C=C/c2cc(O)cc(OC)c2)cc1", "TGI", "> 100 µM"],
  ["CN(C(=O)C1(C(=O)C=[N+]=[N-])CC1)c1ccccc1", "TGI", "> 100 µM"],
  ["N#CC1=C(N)C(C#N)(C#N)C(c2ccc(F)cc2)C=C1C1CC1 (stereo not drawn)", "TGI", "34.8 µM"],
  ["COC(=O)C1=C(OC)c2cc3c(cc2C(c2cc(OC)c(OC)c(OC)c2)C1C(=O)OC)OCO3 (stereo not drawn)", "TGI", "> 100 µM"],
  ["CC1(C)O[C@@H](CO)[C@H]([C@@]23OC[C@H]4OC(C)(C)OC4[C@@H]2OC(C)(C)O3)O1 (stereo partly drawn)", "TGI", "> 100 µM"],
  ["CCCCC[C@@H]1OCO[C@@]2(C)/C=C(C)/C=C/C(=O)O[C@H]([C@@H](C)[C@@H](O)[C@H](C)[C@@]3(O)C[C@@H](O[C@H]4C[C@@H](O)[C@H](O)[C@@H](C)O4)[C@H](C)[C@@H](C)O3)[C@@H](OC)/C=C/C=C(\\C)C[C@@H]1[C@@H]2O (stereo in doubt)", "TGI", "0.0587 µM"],
  ["CCCn1c(C23CC4CC(CC(C4)C2)C3)nc2ccc(Cl)cc2c1=O", "TGI", "> 100 µM"]
]}
